biological target: Caspase-3 (Homo sapiens) (UniProt P42574); experiment: Inhibition of Caspase-3 (unknown origin) assessed as inhibition of release of AMC fluorescent product using Ac-DEVD-AMC as substrate at 10 uM incubated for 30 mins by microplate reader relative to control
Sequence (P42574 29-175 limits assumed): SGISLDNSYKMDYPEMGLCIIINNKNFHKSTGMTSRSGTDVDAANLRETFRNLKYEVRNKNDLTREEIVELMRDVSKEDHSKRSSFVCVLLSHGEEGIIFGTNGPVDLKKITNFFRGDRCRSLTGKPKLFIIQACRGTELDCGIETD
Sequence (P42574 176-277 limits assumed): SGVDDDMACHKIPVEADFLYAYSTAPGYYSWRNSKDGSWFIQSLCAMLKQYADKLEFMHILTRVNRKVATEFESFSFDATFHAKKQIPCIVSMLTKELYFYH
Label MET when inhibition is at or above 10%; otherwise label NOT MET.

Example entries begin here.
>>> df
                           smiles_structure  label_value
0       Cc1ccc(C(=O)Nc2ccc(CN)cc2)c(O)c1.Cl      NOT MET
1      CC(C)c1ccc(C(=O)Nc2ccc(CN)cc2)c(O)c1          MET
2  CC(C)(C)c1ccc(O)c(C(=O)Nc2ccc(CN)cc2)c1.Cl          MET
3      Cl.NCc1ccc(NC(=O)c2cc3ccccc3cc2O)cc1      NOT MET

Then there is this molecule:
Determine whether this molecule has inhibition no lower than 10%: "COc1ccc2c(O)c(C(=O)Nc3ccc(CN)cc3)ccc2c1"
NOT MET
